- test target: T1, human neonatal Fc receptor (hFcRn) (human, UniProt P55899 24-290; P61769 21-119)
- T1 construct: Biotinylated in the ELISA, Octet and yeast assays; also called human FcRn; huFcRn
- T1 sequence (P55899 24-290 limits assumed, chain 1 of 2): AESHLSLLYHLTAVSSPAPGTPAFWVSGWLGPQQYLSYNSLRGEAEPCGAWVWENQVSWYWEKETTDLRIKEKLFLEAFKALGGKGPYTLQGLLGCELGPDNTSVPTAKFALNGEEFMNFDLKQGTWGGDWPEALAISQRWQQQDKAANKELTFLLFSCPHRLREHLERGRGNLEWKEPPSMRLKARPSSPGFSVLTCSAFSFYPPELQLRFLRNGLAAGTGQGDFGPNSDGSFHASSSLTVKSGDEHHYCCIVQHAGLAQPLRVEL
- T1 sequence (P61769 21-119 limits assumed, chain 2 of 2): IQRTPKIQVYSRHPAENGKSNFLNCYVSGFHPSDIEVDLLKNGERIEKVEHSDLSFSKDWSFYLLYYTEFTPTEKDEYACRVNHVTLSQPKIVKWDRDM
- assay notes: phage ELISA pH 6;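 also: higher score means stronger binding and above about 3 to 5 exceeds background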
Binary label based on ELISA score with cut-off 60: below gives True, not below gives False.

binder | class name
L5 isolate with insertion SEQ ID NO: 459 (other) EPKSCDKTHTCPPCPAPELLGGPSVFLFPPKPKDTLMISRTPEVTCVVVDVSHEDPEVKFNWYVDGVEVHNAKTKPREEQYNSTYRVVSVLTVLHQDWLNGKEYKCKVSNKALPAPIEKTISKAKGQPREPQVYTLPPSRDELTKNQVSLTCLVKGFYPSDIAVEWESNGGCPGHEFRCGGGQPENNYKTTPPVLDSDGSFFLYSKLTVDKSRWQQGNVFSCSVMHEALHNHYTQKSLSLSPGK | True
L6B isolate with insertion SEQ ID NO: 440 (other) EPKSCDKTHTCPPCPAPELLGGPSVFLFPPKPKDTLMISRTPEVTCVVVDVSHEDPEVKFNWYVDGVEVHNAKTKPREEQYNSTYRVVSVLTVLHQDWLNGKEYKCKVSNKALPAPIEKTISKAKGQPREPQVYTLPPSRDELGGCNATLSGYLCGGTKNQVSLTCLVKGFYPSDIAVEWESNGQPENNYKTTPPVLDSDGSFFLYSKLTVDKSRWQQGNVFSCSVMHEALHNHYTQKSLSLSPGK | True
variant Fc-fragment Fc-5-57 (other, soluble elsewhere) EPKSCDKTHTCPPCPAPELLGGPSVFLFPPKPKDTLMISRTPEVTCVVVDVSHEDPEVKFNWYVDGVEVHNAKTKPREEQYNSTYRVVSVLTVLHQDWLNGKEYKCKVSNKALPAPIEKTISKAKGQPREPQVYTLPPSRDELTKNQVSLTCLVKGFYPSDIAVEWESNGGCGKHWHQCGGGQPENNYKTTPPVLDSDGSFFLYSKLTVDKSRWQQGNVFSCSVMHEALHNHYTQKSLSLSPGK | True
L5 isolate with insertion SEQ ID NO: 453 (other) EPKSCDKTHTCPPCPAPELLGGPSVFLFPPKPKDTLMISRTPEVTCVVVDVSHEDPEVKFNWYVDGVEVHNAKTKPREEQYNSTYRVVSVLTVLHQDWLNGKEYKCKVSNKALPAPIEKTISKAKGQPREPQVYTLPPSRDELTKNQVSLTCLVKGFYPSDIAVEWESNGGCVHNDKLCGGGQPENNYKTTPPVLDSDGSFFLYSKLTVDKSRWQQGNVFSCSVMHEALHNHYTQKSLSLSPGK | True
variant Fc-fragment Fc-5-69 (other, soluble elsewhere) EPKSCDKTHTCPPCPAPELLGGPSVFLFPPKPKDTLMISRTPEVTCVVVDVSHEDPEVKFNWYVDGVEVHNAKTKPREEQYNSTYRVVSVLTVLHQDWLNGKEYKCKVSNKALPAPIEKTISKAKGQPREPQVYTLPPSRDELTKNQVSLTCLVKGFYPSDIAVEWESNGGCWPLQDYCGGGQPENNYKTTPPVLDSDGSFFLYSKLTVDKSRWQQGNVFSCSVMHEALHNHYTQKSLSLSPGK | False

Every entry's value here was drawn from patent US20140356358A1.
